Reference source: BigSolDB 2.1

settings: in water, 298.15 K
propertyLabel: solubility (mole fraction)
# answer = number (no unit)

Q: Entry "Cc1[nH]c(=O)c(C#N)cc1-c1ccncc1" has what solubility (mole fraction)?
Ans: 9.77e-07

###

conditions: in water, 323.15 K
propertyLabel: solubility (mole fraction)
# answer = number (no unit)

Q: Entry "Cc1[nH]c(=O)c(C#N)cc1-c1ccncc1" has what solubility (mole fraction)?
Ans: 1.85e-06

###

conditions: in water, 308.15 K
propertyLabel: solubility (mole fraction)
# answer = number (no unit)

Q: Entry "Cc1[nH]c(=O)c(C#N)cc1-c1ccncc1" has what solubility (mole fraction)?
Ans: 1.27e-06

###

conditions: in ethanol, 323.15 K
propertyLabel: solubility (mole fraction)
# answer = number (no unit)

Q: Entry "Cc1[nH]c(=O)c(C#N)cc1-c1ccncc1" has what solubility (mole fraction)?
Ans: 3.5e-05

###

details: in water, 278.15 K
propertyLabel: solubility (mole fraction)
# answer = number (no unit)

Q: Entry "Cc1[nH]c(=O)c(C#N)cc1-c1ccncc1" has what solubility (mole fraction)?
Ans: 4.99e-07

###

details: in ethanol, 303.15 K
propertyLabel: solubility (mole fraction)
# answer = number (no unit)

Q: Entry "Cc1[nH]c(=O)c(C#N)cc1-c1ccncc1" has what solubility (mole fraction)?
Ans: 2.13e-05

###

conditions: in DMF, 318.15 K
propertyLabel: solubility (mole fraction)
# answer = number (no unit)

Q: Entry "Cc1[nH]c(=O)c(C#N)cc1-c1ccncc1" has what solubility (mole fraction)?
Ans: 0.000251

###

details: in ethanol, 288.15 K
propertyLabel: solubility (mole fraction)
# answer = number (no unit)

Q: Entry "Cc1[nH]c(=O)c(C#N)cc1-c1ccncc1" has what solubility (mole fraction)?
Ans: 1.35e-05

###

settings: in ethylene glycol, 278.15 K
propertyLabel: solubility (mole fraction)
# answer = number (no unit)

Q: Entry "Cc1[nH]c(=O)c(C#N)cc1-c1ccncc1" has what solubility (mole fraction)?
Ans: 1.72e-05

###

details: in water, 313.15 K
propertyLabel: solubility (mole fraction)

Q: Entry "Cc1[nH]c(=O)c(C#N)cc1-c1ccncc1" has what solubility (mole fraction)?
Ans: 1.44e-06

###

conditions: in isopropanol, 303.15 K
propertyLabel: solubility (mole fraction)
# answer = number (no unit)

Q: Entry "Cc1[nH]c(=O)c(C#N)cc1-c1ccncc1" has what solubility (mole fraction)?
Ans: 5.4e-05

###

details: in DMF, 298.15 K
propertyLabel: solubility (mole fraction)
# answer = number (no unit)

Q: Entry "Cc1[nH]c(=O)c(C#N)cc1-c1ccncc1" has what solubility (mole fraction)?
Ans: 0.000149

###

conditions: in isopropanol, 308.15 K
propertyLabel: solubility (mole fraction)
# answer = number (no unit)

Q: Entry "Cc1[nH]c(=O)c(C#N)cc1-c1ccncc1" has what solubility (mole fraction)?
Ans: 6.16e-05

###

conditions: in water, 293.15 K
propertyLabel: solubility (mole fraction)
# answer = number (no unit)

Q: Entry "Cc1[nH]c(=O)c(C#N)cc1-c1ccncc1" has what solubility (mole fraction)?
Ans: 8.34e-07

###

conditions: in isopropanol, 288.15 K
propertyLabel: solubility (mole fraction)
# answer = number (no unit)

Q: Entry "Cc1[nH]c(=O)c(C#N)cc1-c1ccncc1" has what solubility (mole fraction)?
Ans: 3.43e-05

###

settings: in ethylene glycol, 293.15 K
propertyLabel: solubility (mole fraction)
# answer = number (no unit)

Q: Entry "Cc1[nH]c(=O)c(C#N)cc1-c1ccncc1" has what solubility (mole fraction)?
Ans: 2.89e-05

###

settings: in ethanol, 283.15 K
propertyLabel: solubility (mole fraction)
# answer = number (no unit)

Q: Entry "Cc1[nH]c(=O)c(C#N)cc1-c1ccncc1" has what solubility (mole fraction)?
Ans: 1.13e-05

###

details: in DMF, 288.15 K
propertyLabel: solubility (mole fraction)
# answer = number (no unit)

Q: Entry "Cc1[nH]c(=O)c(C#N)cc1-c1ccncc1" has what solubility (mole fraction)?
Ans: 0.000109

###

conditions: in ethanol, 278.15 K
propertyLabel: solubility (mole fraction)
# answer = number (no unit)

Q: Entry "Cc1[nH]c(=O)c(C#N)cc1-c1ccncc1" has what solubility (mole fraction)?
Ans: 9.24e-06

###

details: in ethanol, 318.15 K
propertyLabel: solubility (mole fraction)
# answer = number (no unit)

Q: Entry "Cc1[nH]c(=O)c(C#N)cc1-c1ccncc1" has what solubility (mole fraction)?
Ans: 3.1e-05

###

settings: in ethanol, 293.15 K
propertyLabel: solubility (mole fraction)
# answer = number (no unit)

Q: Entry "Cc1[nH]c(=O)c(C#N)cc1-c1ccncc1" has what solubility (mole fraction)?
Ans: 1.58e-05

###

details: in DMF, 283.15 K
propertyLabel: solubility (mole fraction)

Q: Entry "Cc1[nH]c(=O)c(C#N)cc1-c1ccncc1" has what solubility (mole fraction)?
Ans: 9.2e-05

###

conditions: in DMF, 293.15 K
propertyLabel: solubility (mole fraction)
# answer = number (no unit)

Q: Entry "Cc1[nH]c(=O)c(C#N)cc1-c1ccncc1" has what solubility (mole fraction)?
Ans: 0.000129

###

conditions: in DMF, 278.15 K
propertyLabel: solubility (mole fraction)
# answer = number (no unit)

Q: Entry "Cc1[nH]c(=O)c(C#N)cc1-c1ccncc1" has what solubility (mole fraction)?
Ans: 7.95e-05

###

settings: in ethylene glycol, 318.15 K
propertyLabel: solubility (mole fraction)
# answer = number (no unit)

Q: Entry "Cc1[nH]c(=O)c(C#N)cc1-c1ccncc1" has what solubility (mole fraction)?
Ans: 5.66e-05

###

details: in isopropanol, 318.15 K
propertyLabel: solubility (mole fraction)
# answer = number (no unit)

Q: Entry "Cc1[nH]c(=O)c(C#N)cc1-c1ccncc1" has what solubility (mole fraction)?
Ans: 7.92e-05

###

conditions: in isopropanol, 278.15 K
propertyLabel: solubility (mole fraction)
# answer = number (no unit)

Q: Entry "Cc1[nH]c(=O)c(C#N)cc1-c1ccncc1" has what solubility (mole fraction)?
Ans: 2.44e-05

###

settings: in isopropanol, 323.15 K
propertyLabel: solubility (mole fraction)
# answer = number (no unit)

Q: Entry "Cc1[nH]c(=O)c(C#N)cc1-c1ccncc1" has what solubility (mole fraction)?
Ans: 9.02e-05

###

details: in ethylene glycol, 303.15 K
propertyLabel: solubility (mole fraction)
# answer = number (no unit)

Q: Entry "Cc1[nH]c(=O)c(C#N)cc1-c1ccncc1" has what solubility (mole fraction)?
Ans: 3.89e-05

###

details: in water, 318.15 K
propertyLabel: solubility (mole fraction)

Q: Entry "Cc1[nH]c(=O)c(C#N)cc1-c1ccncc1" has what solubility (mole fraction)?
Ans: 1.64e-06

###

settings: in ethylene glycol, 308.15 K
propertyLabel: solubility (mole fraction)
# answer = number (no unit)

Q: Entry "Cc1[nH]c(=O)c(C#N)cc1-c1ccncc1" has what solubility (mole fraction)?
Ans: 4.4e-05

###

settings: in isopropanol, 298.15 K
propertyLabel: solubility (mole fraction)
# answer = number (no unit)

Q: Entry "Cc1[nH]c(=O)c(C#N)cc1-c1ccncc1" has what solubility (mole fraction)?
Ans: 4.73e-05

###

conditions: in water, 283.15 K
propertyLabel: solubility (mole fraction)
# answer = number (no unit)

Q: Entry "Cc1[nH]c(=O)c(C#N)cc1-c1ccncc1" has what solubility (mole fraction)?
Ans: 5.98e-07

###

conditions: in ethylene glycol, 313.15 K
propertyLabel: solubility (mole fraction)

Q: Entry "Cc1[nH]c(=O)c(C#N)cc1-c1ccncc1" has what solubility (mole fraction)?
Ans: 5.03e-05

###

conditions: in DMF, 313.15 K
propertyLabel: solubility (mole fraction)

Q: Entry "Cc1[nH]c(=O)c(C#N)cc1-c1ccncc1" has what solubility (mole fraction)?
Ans: 0.000225
